Reference for the values: paper PMC2772130

For each record, write down the corresponding pIC50.
- tested.system: UniProtKB Q16678
- test.protocol: Inhibition of P450 1B1-dependent 7-ethoxyresorufin O-deethylation
- measurement.setup: inhibition of EROD activity IC50, 15 s of incubation time (direct and direct/restore inhibitors); means and SE
Numbers only, as −log10 of the molar value.

Known pIC50 results, listed for orientation:
1. c1ccc2c(c1)cc1ccc3cccc4ccc2c1c34 [B[a]P, benzo[a]pyrene]: 7.51
2. C#Cc1cc2ccc3cccc4ccc(c1)c2c34: 6.96
3. Cc1ccc2cc3c(ccc4ccccc43)c3c2c1CC3: 7.85

Okay, next one:
Need pIC50, item C#Cc1ccc2ccccc2c1
3.72

----------
For each record, write down the corresponding PAH binding to P450 1B1 Bmax.
- tested.system: P450 1B1 (Homo sapiens, UniProt Q16678)
- test.protocol: Quenching of P450 1B1
- Type: binding
- measurement.setup: extrapolated % quenching; 1.0 μM P450 1B1
Answers are plain numbers, in %.

Known PAH binding to P450 1B1 Bmax results, listed for orientation:
1. c1ccc2c(c1)c1cccc3ccc4cccc2c4c31 [B[e]P, benzo[e]pyrene]: 100
2. CC#Cc1ccc2c(ccc3ccccc32)c1: 77
3. c1ccc2c(c1)-c1cccc3c1c-2cc1ccccc13 [B[b]FA, benzo[b]fluoranthene]: 91
4. CC#Cc1ccc2ccc3ccccc3c2c1: 73
5. c1ccc2c(c1)-c1cccc3cccc-2c13: 91

Count: 2. Required value per item: PAH binding to P450 1B1 Bmax.
1. c1ccc2cc3c(ccc4ccccc43)cc2c1 [B[a]A, benz[a]anthracene]
2. CC#Cc1cc2ccccc2c2ccccc12

1. 46
2. 61

Count: 2. Required value per item: PAH binding to P450 1B1 Bmax.
1. CC#Cc1ccc2ccc3cccc4ccc1c2c34
2. c1ccc2c(c1)ccc1c3ccccc3ccc21

69
84

----------
- tested.system: P450 1B1 (Homo sapiens, UniProt Q16678)
- test.protocol: Spectral binding titrations with purified P450 1B1
For each record, write down the corresponding pKd.
Answers are plain numbers, as −log10 of the molar value.

Known pKd results, listed for orientation:
1. CC#Cc1ccc2c(ccc3ccccc32)c1: 5.66
2. CC#Cc1ccc2ccc3ccccc3c2c1: 5.51
3. C#Cc1cc2cccc3ccc4cccc1c4c32: 5.40
4. C#Cc1cc2ccccc2c2ccccc12: 5.44
5. CC#Cc1ccc(-c2ccccc2)cc1: 4.92
6. C#Cc1cc2ccc3cccc4ccc(c1)c2c34: 5.47
7. C#Cc1ccc2ccc3ccccc3c2c1: 5.52
8. CC#Cc1ccc2ccc3cccc4ccc1c2c34: 5.57
9. CC#Cc1cc2ccccc2c2ccccc12: 5.49
10. C#Cc1ccc2c(ccc3ccccc32)c1: 5.38

Count: 4. Required value per item: pKd.
1. C#Cc1ccc2ccc3cccc4ccc1c2c34
2. C=Cc1ccc2ccc3cccc4ccc1c2c34
3. C#Cc1ccc(-c2ccccc2)cc1
4. C#Cc1ccc2ccccc2c1

1: 5.54; 2: 5.37; 3: 5.12; 4: 4.82

----------
For each record, write down the corresponding ΔAmax / Ks.
- tested.system: P450 1B1 (Homo sapiens, UniProt Q16678)
- Sequence (Q16678 1-543): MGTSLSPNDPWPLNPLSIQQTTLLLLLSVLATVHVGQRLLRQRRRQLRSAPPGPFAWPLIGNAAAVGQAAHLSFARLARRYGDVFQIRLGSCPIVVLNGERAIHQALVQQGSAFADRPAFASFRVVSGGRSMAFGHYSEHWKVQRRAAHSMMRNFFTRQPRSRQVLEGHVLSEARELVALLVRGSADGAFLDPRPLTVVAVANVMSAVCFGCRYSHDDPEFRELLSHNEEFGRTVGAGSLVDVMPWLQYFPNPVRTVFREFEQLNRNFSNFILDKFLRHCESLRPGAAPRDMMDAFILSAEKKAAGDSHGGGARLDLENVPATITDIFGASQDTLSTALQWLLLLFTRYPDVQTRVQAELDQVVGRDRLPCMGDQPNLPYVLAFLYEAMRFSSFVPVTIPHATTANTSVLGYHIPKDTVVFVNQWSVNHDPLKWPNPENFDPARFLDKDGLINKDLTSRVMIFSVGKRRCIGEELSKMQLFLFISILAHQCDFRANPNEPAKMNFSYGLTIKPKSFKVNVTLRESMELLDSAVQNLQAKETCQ
One number for each entry.

Known ΔAmax / Ks results, listed for orientation:
1) C=Cc1ccc2ccc3cccc4ccc1c2c34: 0.021
2) C#Cc1ccc2ccc3cccc4ccc1c2c34: 0.017
3) CC#Cc1ccc2ccc3ccccc3c2c1: 0.019
4) C#Cc1ccc2c(ccc3ccccc32)c1: 0.020
5) C#Cc1ccc2ccc3ccccc3c2c1: 0.024

Count: 6. Required value per item: ΔAmax / Ks.
1. CC#Cc1cc2ccccc2c2ccccc12
2. C#Cc1cc2cccc3ccc4cccc1c4c32
3. CC#Cc1ccc2c(ccc3ccccc32)c1
4. C#Cc1cc2ccc3cccc4ccc(c1)c2c34
5. C#Cc1cc2ccccc2c2ccccc12
6. CC#Cc1ccc2ccc3cccc4ccc1c2c34

1: 0.015; 2: 0.013; 3: 0.030; 4: 0.021; 5: 0.020; 6: 0.016
